Increased capping rate relative to Comparative Example 1 for assorted molecules
Biological target: T7 RNA polymerase (Escherichia phage T7)
Sequence (P00573 whole entry): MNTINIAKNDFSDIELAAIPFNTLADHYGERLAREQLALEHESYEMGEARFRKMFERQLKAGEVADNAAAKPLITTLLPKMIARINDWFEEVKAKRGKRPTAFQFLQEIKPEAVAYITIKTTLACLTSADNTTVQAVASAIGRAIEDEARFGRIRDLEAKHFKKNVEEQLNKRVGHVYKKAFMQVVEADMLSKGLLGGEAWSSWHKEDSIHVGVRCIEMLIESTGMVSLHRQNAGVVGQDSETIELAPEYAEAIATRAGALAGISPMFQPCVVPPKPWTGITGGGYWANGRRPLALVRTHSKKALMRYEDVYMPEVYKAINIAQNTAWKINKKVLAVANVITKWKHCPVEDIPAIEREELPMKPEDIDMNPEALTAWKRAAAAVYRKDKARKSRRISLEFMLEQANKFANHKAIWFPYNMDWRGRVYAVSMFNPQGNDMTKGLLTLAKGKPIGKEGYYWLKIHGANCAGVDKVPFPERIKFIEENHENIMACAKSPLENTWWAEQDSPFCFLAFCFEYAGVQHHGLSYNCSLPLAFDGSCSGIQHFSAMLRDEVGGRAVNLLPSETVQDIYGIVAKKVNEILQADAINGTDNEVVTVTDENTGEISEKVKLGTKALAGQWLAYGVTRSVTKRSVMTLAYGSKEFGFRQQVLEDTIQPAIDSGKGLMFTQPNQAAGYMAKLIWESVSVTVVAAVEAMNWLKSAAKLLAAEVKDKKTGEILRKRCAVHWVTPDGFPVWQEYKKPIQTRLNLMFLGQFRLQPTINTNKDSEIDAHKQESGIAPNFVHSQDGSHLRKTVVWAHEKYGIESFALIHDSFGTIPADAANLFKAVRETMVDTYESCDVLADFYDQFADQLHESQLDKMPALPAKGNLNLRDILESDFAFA
Assay: IVT capping rate of mRNA by LC-MS
Assay type: biochemical
Conditions: vs capping rate 93.5% of Comparative Example 1
Description: Test Example 1: Determination of in vitro transcription yield and capping efficiency of mRNA […] Liquid chromatography mass spectrometry (LC-MS) was used to determine the IVT capping rate of mRNA with different initial cap analogs. […] The sample was then resuspended in 50 μl of 100 μM EDTA/1% MeOH, which was ready for LC-MS analysis to determine RNA capping during the transcription reaction. […]
Report the value in % with no unit label.

1. CO[C@H]1C(OP(=O)(O)OC[C@H](CO)O[C@H](CO)n2cnc3c(=O)[nH]c(N)nc32)[C@@H](COP(=O)(O)OP(=O)([O-])OP(=O)(O)OC[C@H](CO)O[C@H](CO)n2c[n+](C)c3c(=O)[nH]c(N)nc32)O[C@H]1n1cnc2c(N)ncnc21 (stereo partly shown)    3
2. COC[C@@H](COP(=O)(O)OP(=O)([O-])OP(=O)(O)OC[C@H]1O[C@@H](n2cnc3c(N)ncnc32)C(OC)C1OP(=O)(O)OC[C@H]1O[C@@H](n2cnc3c(=O)[nH]c(N)nc32)C(O)C1O)O[C@H](CO)n1c[n+](C)c2c(=O)[nH]c(N)nc21 (stereo in doubt)    3.3

Problem: # query: Increased capping rate relative to Comparative Example 1 of entry CO[C@H]1C(OP(=O)(O)OC[C@H]2O[C@@H](n3cnc4c(=O)[nH]c(N)nc43)[C@@H](O)C2O)[C@@H](COP(=O)(O)OP(=O)([O-])OP(=O)(O)OC[C@H](CO)O[C@H](CO)n2c[n+](C)c3c(=O)[nH]c(N)nc32)O[C@H]1n1cnc2c(N)ncnc21 (stereo partly shown)
Result: 5.8

Problem: # query: Increased capping rate relative to Comparative Example 1 of entry C[n+]1cn([C@@H](CO)O[C@@H](CO)COP(=O)([O-])OP(=O)(O)OP(=O)(O)OC[C@]23COC(C2OP(=O)(O)OC[C@H]2O[C@@H](n4cnc5c(=O)[nH]c(N)nc54)C(O)C2O)[C@H](n2cnc4c(N)ncnc42)O3)c2nc(N)[nH]c(=O)c21 (stereo partly shown)
Result: 4.1
